In this section, each of the compounds is paired with its reported TGI.
# Test system: OVCAR-4 ovarian
# Assay Overview: NCI tumour cell line growth inhibition, 48 h

Compound | TGI
CC(C)(CO)CNc1cc(=O)[nH]c(N)n1 | > 100 µM
Cn1ccnc1S/C(=C\C=C(C#N)C#N)c1ccc(Cl)cc1 | > 17.9 µM
O=C(O)CSc1n[nH]c(-c2ccc(O)cc2)n1 | > 100 µM
O=C(Nc1ccccc1F)c1c(O)nc2sccn2c1=O | > 10 µM
OC(C1CCC=NN1C(O)(C(F)(F)F)C(F)(F)F)(C(F)(F)F)C(F)(F)F (configuration not stated) | > 10 µM
O=C1C(=O)N(C(=O)c2ccc(Cl)c(Cl)c2)c2ccccc21 | > 100 µM
CC(=O)Nc1ccc2c(c1)c(C1=C(c3cn(C)c4ccccc34)C(=O)NC1=O)cn2C | > 17.6 µM
Nc1ccn(CCOC(=O)c2ccccc2)c(=O)n1 | > 100 µM
CC1=C(C(=O)Nc2c(C)cccc2C)C(c2ccc3c(c2)OCO3)C(C(=O)Nc2c(C)cccc2C)=C(C)N1 | 77.3 µM
Nn1c(-c2ccccc2)nc2ccc(Br)cc2c1=O | 86.7 µM
O=C(c1ccccc1)C(c1ccccc1)C1(O)C(=O)Nc2c(Cl)cc(Cl)cc21 (configuration not stated) | 28 µM
COc1cccc(C2CC(C)(N3CCCC3)Oc3cc4c(cc32)OCO4)c1O (configuration not stated) | > 100 µM
COc1ccc(N=C2CSc3nnc(-c4cc(F)c(Cl)cc4Cl)n3N2)cc1 | 7.04 µM
Cc1ccc(-[n+]2c3cc(N)c(C)cc3nc3cc(C)c(Nc4ccccc4)cc32)cc1 | 1.59 µM
O=C1NCc2ccc3c(-c4cccc(Cl)c4)c[nH]c3c21 | > 50 µM
Cc1ccc2[nH]cc(-c3nc(-c4c[nH]c5ncccc45)cs3)c2c1 | > 100 µM
COC(=O)/C=C/c1ccccc1N=[S@](C)(=O)c1ccc(C)cc1 | > 100 µM
C=CC(=O)N1C/C(=C\c2ccc(N(C)C)cc2)C(=O)/C(=C/c2ccc(N(C)C)cc2)C1 | > 100 µM
N#CC1=C2Sc3ccccc3N2[C@H](c2ccccc2)[C@H]2COC(=O)[C@@H]12 | > 100 µM
Cc1ccc(C(=O)N(C2CCCCC2)C2CCCCC2)cc1N=NN(C)C | 24 µM
N=C1C(c2nc(-c3ccc(Br)cc3)cs2)=C(O)CN1Cc1cccnc1 | > 100 µM
CCCCOC(=O)C(=O)C(CCC(=O)c1ccc(C)cc1)C(=O)C=C(C)C (configuration not stated) | > 100 µM
